System: Fibroblast
Assay: Incucyte cell viability with human fibroblast; note: unitless GR value; below 1 slowed growth and below 0 cell loss
Type: toxicity, cell-based
Conditions: 12 h, 10 µM, compound concentration 10 uM, replicate number 2
Record form. Attribute: Growth Rate. Fill in for each entry.
// return just the number, without any unit appended

For "COc1cc(/C=C(\C#N)C(=O)Nc2nnc(C(F)(F)F)s2)ccc1OCc1ccc(C(F)(F)F)cc1C(F)(F)F" on Fibroblast, measured Growth Rate was 0.17

For C[C@@H]1CC[C@@]2(OC1)O[C@H]1[C@@H](O)[C@H]3[C@@H]4CC[C@H]5C[C@@H](O[C@@H]6O[C@H](CO)[C@H](O[C@@H]7O[C@H](CO)C(O)[C@H](O[C@@H]8OC[C@@H](O)[C@H](O)[C@H]8O)[C@H]7O[C@@H]7O[C@H](CO)[C@H](O)[C@H](O[C@@H]8O[C@H](CO)[C@@H](O)[C@H](O)[C@H]8O)[C@H]7O)[C@H](O)[C@H]6O)[C@H](O)C[C@]5(C)[C@H]4CC[C@]3(C)[C@H]1[C@@H]2C (some centres undefined) [DIGITONIN] on Fibroblast, measured Growth Rate was 0.67

For "CCCOc1cnc(CN/C=C2\C(=O)NC(=O)c3ccc(I)cc32)cc1O" on Fibroblast, measured Growth Rate was -0.06

For "CC(C)(C)NC(=O)c1cncn1C1CCN(c2ccc(-c3nnc(C(F)(F)F)o3)cn2)CC1" on Fibroblast, measured Growth Rate was -0.49

----------
Test system: U2OS
Assay: Incucyte cell viability with U2OS; note: unitless GR value; below 1 slowed growth and below 0 cell loss
Type: toxicity, cell-based
Details: human, 12 h, 10 µM, compound concentration 10 uM, replicate number 2
Record form. Attribute: Growth Rate. Fill in for each entry.
// return just the number, without any unit appended

Growth Rate reading for "CC1(C)C[C@@H]1C(=O)N/C(=C\CCCCSC[C@H](N)C(=O)O)C(=O)O" : 0.74

Growth Rate reading for "C[C@]12CC[C@@H]3c4ccc(O)cc4CC[C@H]3[C@@H]1C[C@H]1OC(=O)C[C@]12O" : 0.26

Growth Rate reading for "C=CC(=O)Nc1cccc(C)c1Nc1ncc2cc(-c3c(Cl)c(OC)cc(OC)c3Cl)ccc2n1" : 0.5

Growth Rate reading for "Cn1cc(-c2ccc3occ(-c4cccc(-c5ccncc5)c4)c3n2)cn1" : 0.51

Growth Rate reading for "CC(=O)c1ccc2c(c1)/C(=C(/Nc1cccc(C#N)c1)c1ccc3c(c1)OCCO3)C(=O)N2" : 0.72

Growth Rate reading for "COc1cc(Nc2cnc(C#N)c(O[C@H](C)CN(C)C)n2)ncc1-c1cnn(C)c1" : 0.82

Growth Rate reading for "COc1cc2ncnc(Nc3cccc(O)c3)c2cc1OC" : 0.75

Growth Rate reading for CC(C)S(=O)(=O)c1ccccc1Nc1nc(N[C@@H]2CCCN(CCCCCCCNC(=O)COc3cccc4c3C(=O)N(C3CCC(=O)N(C)C3=O)C4=O)C2)ncc1Cl (some centres undefined) : 0.08

Growth Rate reading for "CC(=O)Nc1cccc(-n2c(=O)n(C3CC3)c(=O)c3c(Nc4ccc(I)cc4F)n(C)c(=O)c(C)c32)c1" : 0.91

Growth Rate reading for "Cc1nc(Nc2cnn(C3CCNCC3)c2)nc2c1N(C)C(=O)c1cc3ccccc3cc1N2C" : 0.83

Growth Rate reading for "Cl.O=C(c1ccc(-c2ccc(Cl)cc2)o1)N(Cc1ccccn1)c1ccc(N2CCNCC2)cc1" : 0.87

Growth Rate reading for "COC(=O)c1cc2c(cn1)[nH]c1ccccc12" : 0.95

Growth Rate reading for "Cl.Cl.c1ccc2c(-c3cnn4cc(-c5ccc(N6CCNCC6)cc5)cnc34)ccnc2c1" : -0.46

Growth Rate reading for "CNC(=O)COc1cc2cc(Nc3nc(N4C[C@H](C)C[C@H](C)C4)ncc3Cl)ccc2n(C)c1=O" : 0.85

Growth Rate reading for COc1cc(F)ccc1-c1cc(Nc2cc(CS(C)(=N)=O)ccn2)ncc1F (centres undefined) : 0.36

Growth Rate reading for "CC(C)(C)C(=O)NCc1ccc(Cl)c(C(=O)Nc2ncc[nH]2)c1" : 0.95

Growth Rate reading for "Cc1ccc(NC(=O)c2ccc3cnccc3c2)cc1C(=O)Nc1cnc(Nc2cccc(NC3CCN(C(=O)/C=C/CN(C)C)CC3)c2)nc1" : 0.68

Growth Rate reading for "O=C([O-])c1cc2cc(Cc3cccnc3)ccc2o1.[Na+]" : 0.98

Growth Rate reading for O=C1CCC(N2Cc3cc(CNC(=O)C(F)(F)c4ccc(Cl)cc4)ccc3C2=O)C(=O)N1 (centres undefined) : 0.98

Growth Rate reading for "O=C1C[C@@H]2OCC=C3CN4CC[C@]56c7ccccc7N1[C@H]5[C@H]2[C@H]3C[C@H]46" : 0.85

Growth Rate reading for "Cc1cc(-c2nc(-c3ccc(OC(F)(F)F)cc3)no2)nn1Cc1ccnc(N2CCN(C3CC3)CC2)c1" : 0.51

Growth Rate reading for "O=C(Cc1ccccc1)Nc1nnc(N2C[C@H]3C[C@@H]2CN3c2cccnn2)s1" : 0.59

Growth Rate reading for CC(=O)Oc1ccc2c(c1)[C@@]1(C)CCC[C@](C)(C(=O)OC(=O)[C@@]3(C)CCC[C@]4(C)c5cc(OC(C)=O)ccc5CC[C@@H]34)[C@@H]1CC2 [ACETYL PODOCARPIC ACID ANHYDRIDE] : 0.76

Growth Rate reading for "C[C@@H]1C[C@H](C)CN(c2ncc(Cl)c(Nc3ccc4c(c3)cc(OC(C)(C)C(=O)O)c(=O)n4C)n2)C1" : 0.42

Growth Rate reading for "CC(C)(C)c1ccc2c(c1)CC[C@H]2NC(=O)Nc1cccc2[nH]ncc12" : 0.84

Growth Rate reading for "CNc1oc(-c2cccc3ccccc23)nc1C#N" : 0.93

Growth Rate reading for "CN(C)C/C=C/C(=O)Nc1cc2c(Nc3ccc(F)c(Cl)c3)ncnc2cc1OC[C@@H]1CCCO1" : -0.07

Growth Rate reading for "CC1(C)CCC(CN2CCN(c3ccc(C(=O)NS(=O)(=O)c4ccc(NCC5CCOCC5)c([N+](=O)[O-])c4)c(Oc4cnc5[nH]ccc5c4)c3)CC2)=C(c2ccc(Cl)cc2)C1" : 0.51

Growth Rate reading for "CN1CCCN(C(=O)c2cccc(-c3ccc(/C=C4/C(=O)Nc5ccc(Cl)cc54)o3)c2)CC1" : -0.54

Growth Rate reading for "Cc1cc(Cn2c(N3CC4(CNC4)C3)nc3c(N4CCN(C)CC4)cc(Cl)cc32)cc(C)c1F" : -0.92

Growth Rate reading for "Cl.Cl.N#Cc1ccc(O[C@@H]2c3ccccc3C[C@H]2N2CCC[C@@H](N)C2)c(Cl)c1" : 0.96

Growth Rate reading for "c1ccc2c(c1)SCc1c-2[nH]c2ccccc12" : -0.52

Growth Rate reading for COC(=O)C1=C(C)NC(C)=C(C(=O)OC(C)C)C1c1cccc2nonc12 (centres undefined) : 0.87

Growth Rate reading for "Cn1c(Nc2c(Cl)cccc2Cl)nc2ccc3nc[nH]c(=O)c3c21" : 0.74
